- SYSTEM_UNDER_TEST: CYP1A2 (Homo sapiens)
- Construct: from tissue; host or cells: human liver microsomes
- Sequence (P05177 whole entry): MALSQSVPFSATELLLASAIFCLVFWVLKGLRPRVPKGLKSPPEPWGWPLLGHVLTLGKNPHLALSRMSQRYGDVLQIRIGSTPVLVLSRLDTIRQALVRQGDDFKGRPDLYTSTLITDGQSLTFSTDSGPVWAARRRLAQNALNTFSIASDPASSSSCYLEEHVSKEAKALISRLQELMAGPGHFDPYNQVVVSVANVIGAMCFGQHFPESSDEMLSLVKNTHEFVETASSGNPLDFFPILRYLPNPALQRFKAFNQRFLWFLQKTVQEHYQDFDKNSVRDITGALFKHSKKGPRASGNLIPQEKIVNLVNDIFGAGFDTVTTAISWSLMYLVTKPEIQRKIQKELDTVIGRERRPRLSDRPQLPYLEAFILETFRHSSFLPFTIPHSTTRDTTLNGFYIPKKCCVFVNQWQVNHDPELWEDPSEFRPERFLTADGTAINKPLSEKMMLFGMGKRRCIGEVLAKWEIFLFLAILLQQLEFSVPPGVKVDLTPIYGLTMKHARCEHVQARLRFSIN
- PROCEDURE_SUMMARY: Cytochrome P450 inhibition using human liver microsomes, CYP1A2
- Type: in vitro ADME
- ASSAY_CONDITIONS: read-out: CYP 450 IC50, 1A2
METRIC: IC50 (nM)

COMPOUND	UNITS_LABEL	IC50
Cc1csc(NC(=O)c2cc(O[C@@H]3CCOC3)c3sccc3n2)n1 [19aA]	nM	1200
Cc1csc(NC(=O)c2cc(O[C@@H]3CCOC3)cc(F)c2F)n1 [27cA]	nM	1300

----------
- SYSTEM_UNDER_TEST: human mGlu5 (Homo sapiens)
- Construct: expressed in transfected cells
- Sequence (P41594 21-1212): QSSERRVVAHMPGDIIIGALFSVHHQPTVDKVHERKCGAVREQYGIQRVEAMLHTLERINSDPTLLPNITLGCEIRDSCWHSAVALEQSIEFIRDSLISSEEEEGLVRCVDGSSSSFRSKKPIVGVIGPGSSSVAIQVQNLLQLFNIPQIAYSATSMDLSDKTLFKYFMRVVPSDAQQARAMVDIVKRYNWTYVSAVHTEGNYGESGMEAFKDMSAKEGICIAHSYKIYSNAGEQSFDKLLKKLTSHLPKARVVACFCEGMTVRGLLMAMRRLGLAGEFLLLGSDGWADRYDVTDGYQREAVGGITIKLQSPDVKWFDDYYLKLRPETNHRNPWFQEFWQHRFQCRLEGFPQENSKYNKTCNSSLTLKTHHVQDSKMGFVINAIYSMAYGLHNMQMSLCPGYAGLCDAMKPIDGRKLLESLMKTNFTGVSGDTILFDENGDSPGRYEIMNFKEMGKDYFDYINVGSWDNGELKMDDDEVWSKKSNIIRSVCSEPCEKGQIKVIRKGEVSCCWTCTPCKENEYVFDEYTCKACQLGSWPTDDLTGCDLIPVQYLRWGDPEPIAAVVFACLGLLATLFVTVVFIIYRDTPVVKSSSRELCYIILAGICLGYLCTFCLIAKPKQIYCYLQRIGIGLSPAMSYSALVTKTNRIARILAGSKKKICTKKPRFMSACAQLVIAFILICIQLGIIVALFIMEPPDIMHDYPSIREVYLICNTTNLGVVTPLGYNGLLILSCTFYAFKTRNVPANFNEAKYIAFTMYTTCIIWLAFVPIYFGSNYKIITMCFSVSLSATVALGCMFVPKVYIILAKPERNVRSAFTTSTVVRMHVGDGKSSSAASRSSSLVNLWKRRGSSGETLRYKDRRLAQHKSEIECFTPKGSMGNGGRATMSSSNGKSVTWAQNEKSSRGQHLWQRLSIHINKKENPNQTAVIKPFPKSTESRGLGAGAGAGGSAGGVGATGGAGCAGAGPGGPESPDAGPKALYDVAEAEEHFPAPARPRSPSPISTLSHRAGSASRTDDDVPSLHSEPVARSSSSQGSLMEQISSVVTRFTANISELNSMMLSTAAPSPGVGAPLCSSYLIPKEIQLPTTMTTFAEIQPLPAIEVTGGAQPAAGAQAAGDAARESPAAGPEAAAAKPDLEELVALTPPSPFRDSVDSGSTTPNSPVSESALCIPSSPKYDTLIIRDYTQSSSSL
- PROCEDURE_SUMMARY: Calcium mobilization assay in human mGlu5-HEK293A cells (NAM, EC80 glutamate)
- Assay type: cell-based
- ASSAY_CONDITIONS: human mGlu5-HEK293A cells, EC80 fixed concentration of glutamate, n = 2 in triplicate
METRIC: pIC50

MOLECULE	SYSTEM_UNDER_TEST	QUANTITATIVE_READOUT
Cc1csc(NC(=O)c2cc(O[C@@H]3CCOC3)c3ccncc3n2)n1 [27gA]	human mGlu5 (Homo sapiens)	5.69
Cc1cccc(NC(=O)c2cc(O[C@@H]3CCOC3)c3sccc3n2)n1 [19aD]	human mGlu5 (Homo sapiens)	7.66
Cc1cccc(NC(=O)c2cc(O[C@@H]3CCOC3)c3sccc3n2)c1 [19aE]	human mGlu5 (Homo sapiens)	6.08
O=C(Nc1ccc(F)cn1)c1cc(O[C@@H]2CCOC2)c2ccccc2n1 [19fB]	human mGlu5 (Homo sapiens)	5.59
N#Cc1csc(NC(=O)c2cc(O[C@@H]3CCOC3)c3sccc3n2)n1 [19aN]	human mGlu5 (Homo sapiens)	6.27
O=C(Nc1cccc(F)n1)c1cc(O[C@@H]2CCOC2)c2sccc2n1 [19aC]	human mGlu5 (Homo sapiens)	5.98

----------
- SYSTEM_UNDER_TEST: CYP2C9 (Homo sapiens)
- Construct: from tissue; host or cells: human liver microsomes
- Sequence (P11712 whole entry): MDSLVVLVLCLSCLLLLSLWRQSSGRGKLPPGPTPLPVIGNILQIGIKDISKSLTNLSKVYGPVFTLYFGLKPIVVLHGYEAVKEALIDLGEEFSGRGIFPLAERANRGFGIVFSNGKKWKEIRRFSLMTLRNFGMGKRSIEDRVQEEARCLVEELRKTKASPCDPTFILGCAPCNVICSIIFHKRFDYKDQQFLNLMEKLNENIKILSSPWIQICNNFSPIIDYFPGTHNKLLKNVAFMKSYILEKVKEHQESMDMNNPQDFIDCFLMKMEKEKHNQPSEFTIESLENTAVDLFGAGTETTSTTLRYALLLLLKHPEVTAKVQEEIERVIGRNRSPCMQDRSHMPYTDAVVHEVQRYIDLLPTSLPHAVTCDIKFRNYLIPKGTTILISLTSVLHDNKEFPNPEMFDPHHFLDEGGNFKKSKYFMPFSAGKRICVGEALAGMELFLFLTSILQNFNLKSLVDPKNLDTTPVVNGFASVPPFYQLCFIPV
- PROCEDURE_SUMMARY: Cytochrome P450 inhibition using human liver microsomes, CYP2C9
- Format: in vitro ADME
- ASSAY_CONDITIONS: read-out: CYP 450 IC50, 2C9
pIC50: −log10 of the molar value.
METRIC: pIC50

MOLECULE	SYSTEM_UNDER_TEST	pIC50
Cc1csc(NC(=O)c2cc(O[C@@H]3CCOC3)c3sccc3n2)n1 [19aA]	CYP2C9 (Homo sapiens)	< 4.52

Name the reported pIC50 value associated with the molecule Cc1csc(NC(=O)c2cc(O[C@@H]3CCOC3)cc(F)c2F)n1 [27cA]
< 4.52

----------
- PROCEDURE_SUMMARY: Rat IV/PO pharmacokinetics
- Type: in vivo, Sprague-Dawley rat
- ASSAY_CONDITIONS: plasma, male Sprague-Dawley rats (n = 2), IV 1 mg/kg, read-out: Elim. t 1/2 (converted)
METRIC: half-life (h)

[1] Cc1csc(NC(=O)c2cc(O[C@@H]3CCOC3)cc(F)c2F)n1 [27cA]
[2] Cc1csc(NC(=O)c2cc(O[C@@H]3CCOC3)c3sccc3n2)n1 [19aA]
Given the listed records, identify the one among 1 and 2 with higher half-life. Answer = label.
2
(2: 3.42 h, 1: 1.78 h)
